- system tested: USP7 (Homo sapiens, UniProt Q93009, C315A)
- Construct: 0.25 nM His-His-USP7 (aa208-560, |C315A|) was incubated with compound; His-His (N)
- Sequence (Q93009 208-560 C315A): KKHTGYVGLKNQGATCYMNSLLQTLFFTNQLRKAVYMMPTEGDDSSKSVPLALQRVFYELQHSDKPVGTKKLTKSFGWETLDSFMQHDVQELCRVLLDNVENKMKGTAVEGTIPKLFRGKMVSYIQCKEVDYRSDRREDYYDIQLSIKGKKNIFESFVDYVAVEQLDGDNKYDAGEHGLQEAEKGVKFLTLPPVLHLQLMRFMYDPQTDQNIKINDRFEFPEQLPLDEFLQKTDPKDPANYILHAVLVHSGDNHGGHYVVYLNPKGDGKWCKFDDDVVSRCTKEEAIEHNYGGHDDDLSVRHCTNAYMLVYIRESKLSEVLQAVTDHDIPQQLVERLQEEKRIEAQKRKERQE
- protocol notes: Inhibition of USP7 by Fluorescence Intensity (FLINT) readings, Ubiquitin-Rhodamine-110 substrate
- Format: biochemical
- measurement context: 0.25 nM His-His-USP7 (aa208-560), 60 minutes at 30° C. preincubation; Ki determined from IC50 according to Cer et al.
Structures can show the parent of a compound that is named as a salt.
endpoint: Ki
Please give the number followed by its unit.

Ask | I'd like to know its Ki. The molecule in question is COc1cc(Cl)cc(Oc2ncn(CC3(O)CCN(C(=O)[C@@H]4CCNC[C@H]4c4ccccc4)CC3)c(=O)c2N)c1 [Example 15]
Reply | 286 nM

Ask | I'd like to know its Ki. The molecule in question is Cc1nc(C2CCOCC2)sc1C(=O)N1CC[C@@H](C(=O)N2CCC(O)(Cn3cnc(Oc4ccc(F)cc4)c(N)c3=O)CC2)[C@H](c2ccccc2)C1 [Example 191]
Reply | 17.7 nM

Ask | I'd like to know its Ki. The molecule in question is Cc1nccnc1CN1CC[C@@H](C(=O)N2CC[C@](O)(Cn3cnc(Oc4ccc(F)cc4)c(N)c3=O)C(F)(F)C2)[C@H](c2ccccc2)C1 [Example 211]
Reply | 27.7 nM

Ask | I'd like to know its Ki. The molecule in question is Nc1c(Oc2ccc(F)cc2)ncn(CC2(O)CCN(C(=O)[C@@H]3CCN(C(=O)c4cscn4)C[C@H]3c3ccccc3)CC2)c1=O [Example 28]
Reply | 64.1 nM

Ask | I'd like to know its Ki. The molecule in question is Cc1ccc(-c2nc(C)c(C(=O)N3CC[C@@H](C(=O)N4CCC(O)(Cn5cnc(Oc6cccnc6)c(N)c5=O)CC4)[C@H](c4ccccc4)C3)s2)cn1 [Example 169]
Reply | 3.47 nM

Ask | I'd like to know its Ki. The molecule in question is Nc1c(Oc2cccc(C(F)(F)F)c2)ncn(CC2(O)CCN(C(=O)[C@@H]3CCNC[C@H]3c3ccccc3)CC2)c1=O [Example 18, hydrochloride]
Reply | 329 nM

Ask | I'd like to know its Ki. The molecule in question is COc1cc(Oc2ncn(C[C@@]3(O)CCN(C(=O)[C@@H]4CCN(Cc5cncc(C)n5)C[C@H]4c4ccccc4)CC3(F)F)c(=O)c2N)ccc1F [Example 218]
Reply | 30.1 nM

Origin of the recorded values: patent US20210355106A1
